- System: MCF7 breast
- assay_remarks: NCI-60 one-dose screen, 48 h
- condition_set: 10 µM unless noted
About 83,000 compounds went through this panel and 20% of them were active in at least one assay; those are over-represented in the sample as a whole. Calls of active or inactive are those of the source. Rule for the calls: active = growth percent below 10; inactive = the rest.
Hi there, use one of these labels in your reply, thanks! t for active, f for inactive

Answered examples (4):
>>> assigned_class("CCCCCCCC/C=C/CCCCCCCC1=NCC[N+]1(CCO)CCO")
"f"
>>> assigned_class("CCN(CC)CCCNC(=O)c1ccc(N)cc1O")
"f"
>>> assigned_class("CCCNCC(=O)Nc1ccc(C(=O)OC(C)(C)CC)cc1")
"f"
>>> assigned_class("Clc1ccc2c(NCCCN3CCN(c4nc(N5CCOCC5)nc5ccccc45)CC3)ccnc2c1")
"t"

Check the results log: what was the call for C=C(C)[C@@H]1CC[C@]2(CNCCO)CC[C@]3(C)[C@H](CC[C@@H]4[C@@]5(C)CCC(N)[C@@](C)(CO)[C@@H]5CC[C@]43C)[C@@H]12 (some centres undefined) ?
t

Check the results log: what was the call for `NC(N)=N/N=C/c1ccc(Br)cc1` ?
t

Check the results log: what was the call for `COc1c(C)cnc(CSc2nc(-c3ccc(C)cc3)cn2-c2ccc(Cl)cc2)c1C` ?
f

Check the results log: what was the call for `[2H]c1nc(Nc2ncc(F)c(-c3cc(F)c4nc(C)n(C(C)C)c4c3)n2)c([2H])c([2H])c1CN1CCN(C([2H])([2H])C([2H])([2H])[2H])CC1` ?
f

Check the results log: what was the call for `COc1ccc(/C(C)=C(\c2ccc(Cl)cc2)c2ccc(OCCN3CCCCC3)cc2)cc1F` ?
f

----------
- Test system: BT-549 breast
- assay_remarks: NCI-60 one-dose screen, 48 h
- condition_set: 10 µM unless noted
About 83,000 compounds went through this panel and 20% of them were active in at least one assay; those are over-represented in the sample as a whole. Activity calls are given as the source filed them. Rule for the calls: active = growth percent below 10; inactive = the rest.
Hi there, use one of these labels in your reply, thanks! active, inactive

Answered examples (2):
>>> assigned_class("N#Cc1c(N)nc2c(nnn2-c2cccc(Br)c2)c1N")
"inactive"
>>> assigned_class("CCOc1ccc2nc(-c3cccc(OCC(=O)NC(C)C)c3)nc(Nc3ccc(-c4cn[nH]c4)cc3)c2c1")
"active"

Check the results log: what was the call for `CC(=O)c1sc(-c2ccccc2)cc1N` ?
inactive

Check the results log: what was the call for `Cn1c(NCCc2ccc(O)c(O)c2)nc2c1c(=O)n(Cc1ccc(Cl)cc1)c(=O)n2C` ?
inactive

Check the results log: what was the call for `CCN(CC)N=Nc1nn(C(=O)Nc2ccc(Cc3ccccc3)cc2)c2ccc(Cl)cc12` ?
inactive

----------
- Test system: A549/ATCC NSCLC
- assay_remarks: NCI-60 one-dose screen, 48 h
- condition_set: 10 µM unless noted
- Experimental: Growth inhibition of the A549/ATCC human Non-Small Cell Lung tumor cell line is measured as a screen for anti-cancer activity. Cells are grown in 96 well plates and exposed to the test compound for 48 hours. Compounds are tested at a single concentration, which is 10^-5 M for most compounds. The reported endpoint is percent growth (GI% or GIPRCNT), where numbers from 0 - 100% represent growth inhibition, and numbers from -100% - 0 represent cell death. […]
This is part of a sample that, as a whole, favours compounds with a hit. Of some 83,000 tested, about 20% had one in any assay. Active and inactive are the calls of the source. The calls were made as follows: active = growth percent below 10; inactive = the rest.
Hi there, use one of these labels in your reply, thanks! class 1 (active), class 0 (inactive)

Answered examples (5):
>>> assigned_class("Cn1cc(Nc2nccc(-c3ccc(N4CCCC4)c(C#N)c3)n2)cn1")
"class 0"
>>> assigned_class("CCCCCCCC/C=C\\CCCCCCCC(=O)Oc1cccc2cccnc12")
"class 0"
>>> assigned_class("CCn1c(Sc2nnc(NC(=O)CCN3CCCC3)s2)nc2c1c(=O)n(C)c(=O)n2C")
"class 0"
>>> assigned_class("CC(C)(C)OC(=O)N1Cc2cc3ccccc3nc2C1CO (stereo not given)")
"class 0"
>>> assigned_class("N#Cc1cnn2c(-c3ccc(Cl)cc3)nc(NC3CC3)nc12")
"class 0"

Check the results log: what was the call for O=C(/C=C/C12c3ccccc3C(c3ccccc31)C1C(=O)N(c3ccccc3)C(=O)C12)c1ccccc1 (stereo not given) ?
class 0

Check the results log: what was the call for `COc1ccc(/C=C2\C=C(c3ccccc3)N(CCc3ccccc3)C2=O)cc1OC` ?
class 0

Check the results log: what was the call for `CN(C)CCn1cc(-c2ccc3c(Nc4ccc(CC(=O)Nc5cccc(F)c5)cc4)ncnc3c2)cn1` ?
class 1

Check the results log: what was the call for `CC(C)(C)c1ccc(C(=O)Nc2sc3c(c2C(N)=O)CCC(=O)C3)cc1` ?
class 0

Check the results log: what was the call for CC1=NN(c2cccc(Cl)c2)C(=O)/C1=C\c1cn(CC(O)CN2CCCCC2)c2ccccc12 (stereo not given) ?
class 0

----------
- Test system: UACC-257 melanoma
- assay_remarks: NCI-60 one-dose screen, 48 h
- condition_set: 10 µM unless noted
Compounds without any hit were thinned out: in the full panel of roughly 83,000, 20% have a hit. The source made the active and inactive calls. Rule for the calls: active = growth percent below 10; inactive = the rest.
Hi there, use one of these labels in your reply, thanks! active, inactive

Answered examples (10):
>>> assigned_class("Cc1ccc(NC(=O)C(Cl)Cl)cc1")
"inactive"
>>> assigned_class("CC/C=C/[C@@H]1C=C[C@@H]2CCC[C@H]2[C@@H]1CC[C@H](O)[C@H](C)N")
"active"
>>> assigned_class("Cl.Fc1c[c-]c(-c2ccccn2)c(F)c1.[Pt].c1ccc([PH+](C[PH+](c2ccccc2)c2ccccc2)c2ccccc2)cc1")
"active"
>>> assigned_class("COc1ccc(-c2cc(-c3ccc(Nc4nc(Nc5ccccc5)nc(Nc5ccc(Cl)cc5)n4)cc3)nc(N)c2C#N)cc1")
"active"
>>> assigned_class("O=[N+]([O-])c1ccc(-c2cc3c(Nc4ccc(OCc5cccc(Cl)c5)c(Cl)c4)ncnc3s2)cc1")
"inactive"
>>> assigned_class("O=S(=O)(Nc1ccsc1-c1nc(-c2ccccc2)no1)c1cc(Cl)cc(Cl)c1")
"inactive"
>>> assigned_class("COc1ccc2cc(-c3ccc(C(=O)NN)c(C)n3)ccc2c1")
"inactive"
>>> assigned_class("CN1CCN(C(=O)[C@]23CCC(C)(C)C[C@@H]2C2=CC[C@@H]4[C@@]5(C)Cc6c([nH]c7ccccc67)C(C)(C)[C@@H]5CC[C@@]4(C)[C@]2(C)CC3)CC1")
"inactive"
>>> assigned_class("CCCCCCCC/C=C\\CCCCCCCC(=O)Oc1cccc2cccnc12")
"active"
>>> assigned_class("COc1ccc(-c2nc3ncccn3c2/C=C/C(=O)c2cc(OC)c(OC)c(OC)c2)cc1")
"inactive"

Check the results log: what was the call for `COc1ccc(/C=C2\C=C(c3ccccc3)N(CCc3ccccc3)C2=O)cc1OC` ?
inactive

Check the results log: what was the call for `CN1CCN(c2ccc3nc(/N=C/c4ccc5sc(-c6ccc([N+](=O)[O-])cc6)nc5c4)sc3c2)CC1` ?
inactive

Check the results log: what was the call for `NC(N)=N/N=C(/c1ccccc1)c1ccccc1F` ?
inactive

Check the results log: what was the call for `CSc1ncc(C)c(Nc2ccc(Cl)cc2)n1` ?
inactive

----------
- System: SW-620 colon
- assay_remarks: NCI-60 one-dose screen, 48 h (100 = growth as untreated, 0 = no growth, -100 = all killed)
- condition_set: 10 µM unless noted
About 83,000 compounds went through this panel and 20% of them were active in at least one assay; those are over-represented in the sample as a whole.
# label = Met if growth < 80% else Not met

>>> assigned_class("CC(C)OC(=O)OCOP(=O)(OCOC(=O)OC(C)C)C1CCCN(O)C1=O (stereo unspecified)")
"Met"
>>> assigned_class("COc1ccc(C2CC(c3cnccn3)=NN2)cc1OC (stereo unspecified)")
"Not met"
>>> assigned_class("N#Cc1c(-c2ccccc2)nc(SCC2CO2)nc1N1CCOCC1 (stereo unspecified)")
"Not met"
>>> assigned_class("CCOC(=O)c1nnn(-c2ccccc2)c1C1=CN(C)CCC1")
"Not met"
>>> assigned_class("O=C1NCC(=O)N(Cc2ccco2)[C@H]1Cc1ccccc1")
"Not met"

Problem: For the compound `N=C(N)c1ccc(-c2ccc(-c3ccc(Cl)cc3Cl)o2)nc1` , is growth under 80%?
Met

Problem: For the compound `COc1cc2c(=O)n(CCCn3ccnc3)c3c4cc5c(cc4ccc3c2cc1OC)OCO5` , is growth under 80%?
Met

Problem: For the compound `CC1(C)N=C(N)N=C(N)N1c1cccc(CN)c1` , is growth under 80%?
Not met

Problem: For the compound `CCCn1nc(-c2ccccc2)c2c(-c3ccccc3)onc2c1=O` , is growth under 80%?
Met

Problem: For the compound `Cc1cc(-c2ccccc2)cc(SC#N)[n+]1[O-]` , is growth under 80%?
Met

Problem: For the compound `NS(=O)(=O)Oc1ccc(-c2sc3cc(O)ccc3c2C(=O)c2ccc(OCCN3CCCCC3)cc2)cc1` , is growth under 80%?
Met
